Value source: patent US9650395B2

system: Pseudomonas aeruginosa (P. aeruginosa) 27853; experiment: Antibacterial activity, MIC, P. aeruginosa 27853; type: cell-based; details: Pseudomonas aeruginosa, P. aeruginosa 27853; read-out: MIC 27853
endpoint: MIC

> print(dat)
                                   compound  endpoint         meas.value
1  CCc1c(-c2ccc(-n3ccnc3)cc2)[nH]c(=O)c(C(=O)O)c1O       MIC  12.5 to 150 µg/mL
2  CCc1c(-c2ccc(N3CCC4(CCN(C)C4)C3)cc2)[nH]c(=O)c(C(=O)O)c1O (stereo not drawn)       MIC  3.5 to 12.5 µg/mL
3  CCc1cc(C(=O)O)c(=O)[nH]c1-c1ccc(N2CCC(N=[N+]=[N-])C2)cc1 (stereo not drawn)       MIC  12.5 to 150 µg/mL

Then there is this compound:
Task item: Tell me the measured MIC of CCc1cc(C(=O)O)c(=O)[nH]c1-c1ccc(N2Cc3cccnc3C2)cc1 , please.
Reply: 12.5 to 150 µg/mL
